Reference for the values: the supplement of paper PMC9170038

System: MS2 coat protein
Assay text: apparent KD of MS2 coat protein; higher = weaker reporter binding
Cond: Eterna round: R101; input ligand: none
Response key: Condition met means apparent KD of MS2 coat protein >= 60 nM; Condition not met means apparent KD of MS2 coat protein < 60 nM.

{"columns": ["Sequence input", "Assay system", "Group label"],
 "data": [
  ["AGACCUGCUCAGAAGGCGGAUACGAGGCUGGAAACAGCCUCGUAAUUAAAUCUUCGAGGAUCACCCGAGGAUAUGAGCAGGUCA [#SharedSequence - IExNG2: 13] (puzzle (switch architecture): Inverted Exclusion NG 2)", "MS2 coat protein", "Condition not met"],
  ["GGUCGACCUCAAGGAUAUGGACUGCUUUGCAGUCCAGAAGGUGAGGAUCACCCAUCUACGGUCAGGUUUCUGACCGAUCGACCU [#AddUracilToBrourdLoops 6 - Jieux - Exclusion NG1] (puzzle (switch architecture): Exclusion NG 1)", "MS2 coat protein", "Condition met"],
  ["CCUGCACUUCAAGGAUAUCCAGUCGUUUCGACUGGAGAAGGUGAGGAUCACCCACCUAGCCUGACGUUUGUCAGGCAUGCAGGU [#AddUracilToBrourdLoops 3 - Jieux - Exclusion NG1] (puzzle (switch architecture): Exclusion NG 1)", "MS2 coat protein", "Condition not met"],
  ["GGUCGACCUCAAGGAUAUGGACUGCUUUGCAGUCCAGAAGGUGAGGAUCACCCACCUACGGUCAGGUUUCUGACCGAUCGACCU [#AddUracilToBrourdLoops 2 - Jieux - Exclusion NG1] (puzzle (switch architecture): Exclusion NG 1)", "MS2 coat protein", "Condition not met"],
  ["AAAGAUUUUUAAGGAUAUCAGUGGCAAAGCCACUGAGAAGGUGAGGAUCACCCAUCUACGUGACCCUGGAAACAGGGUCACGAA [#SharedSequence - ExNG1-16] (puzzle (switch architecture): Exclusion NG 1)", "MS2 coat protein", "Condition not met"],
  ["ACAGGUCGUGAGAAGGCGGGUGGCACCGUCGAAAGACGGUGCAAUUAAAAUCUUCGAGGAUCACCCGAGGAUAUCACGACCUGA [#SharedSequence - IExNG2: 17] (puzzle (switch architecture): Inverted Exclusion NG 2)", "MS2 coat protein", "Condition not met"],
  ["UAGAAGCUCACAGGAUAUCAGUAUGCGCGAUCUAACGCAUUAAUGAACUGCUGAGAAGGGUGAGACAUGAGGAUCACCCAUGUA [Enesraadi] (puzzle (switch architecture): Small Loop Same State NG 1)", "MS2 coat protein", "Condition met"],
  ["AAAGAUUUUUAAGGAUAUGACUCCGAAACGGAGUCAGAAGGUGAGGAUCACCCACCUAGCUCAGGGUCGAAAGACCCUGAGCAA [#SharedSequence - ExNG1-13] (puzzle (switch architecture): Exclusion NG 1)", "MS2 coat protein", "Condition not met"],
  ["GUAGCAUUCUGAGGAUAUUCAUACCGGAAACGGACAUGAGGAUCACCCAUGUGGCGAAAGCCUUGGGAGAAGGCAGUAUGCUAC [#DoubleMagnetSystem - Xeonanis 25 9 - Original] (puzzle (switch architecture): Same State NG 2)", "MS2 coat protein", "Condition met"],
  ["AGAGCUGCUCAGAAGGAGGAUCACCCUUUCGAAAGAAAUACGGAGGCUGAAAAGCCUCCGAAAUUCUAGGAUAUGAGCAGCUCA [#SharedSequence - IExNG2: 7] (puzzle (switch architecture): Inverted Exclusion NG 2)", "MS2 coat protein", "Condition met"]
]}
